This collection of values is drawn from ChEMBL document CHEMBL1932952.

Molecular target: Histone deacetylase 7 (Homo sapiens)
Sequence (Q8WUI4 whole entry): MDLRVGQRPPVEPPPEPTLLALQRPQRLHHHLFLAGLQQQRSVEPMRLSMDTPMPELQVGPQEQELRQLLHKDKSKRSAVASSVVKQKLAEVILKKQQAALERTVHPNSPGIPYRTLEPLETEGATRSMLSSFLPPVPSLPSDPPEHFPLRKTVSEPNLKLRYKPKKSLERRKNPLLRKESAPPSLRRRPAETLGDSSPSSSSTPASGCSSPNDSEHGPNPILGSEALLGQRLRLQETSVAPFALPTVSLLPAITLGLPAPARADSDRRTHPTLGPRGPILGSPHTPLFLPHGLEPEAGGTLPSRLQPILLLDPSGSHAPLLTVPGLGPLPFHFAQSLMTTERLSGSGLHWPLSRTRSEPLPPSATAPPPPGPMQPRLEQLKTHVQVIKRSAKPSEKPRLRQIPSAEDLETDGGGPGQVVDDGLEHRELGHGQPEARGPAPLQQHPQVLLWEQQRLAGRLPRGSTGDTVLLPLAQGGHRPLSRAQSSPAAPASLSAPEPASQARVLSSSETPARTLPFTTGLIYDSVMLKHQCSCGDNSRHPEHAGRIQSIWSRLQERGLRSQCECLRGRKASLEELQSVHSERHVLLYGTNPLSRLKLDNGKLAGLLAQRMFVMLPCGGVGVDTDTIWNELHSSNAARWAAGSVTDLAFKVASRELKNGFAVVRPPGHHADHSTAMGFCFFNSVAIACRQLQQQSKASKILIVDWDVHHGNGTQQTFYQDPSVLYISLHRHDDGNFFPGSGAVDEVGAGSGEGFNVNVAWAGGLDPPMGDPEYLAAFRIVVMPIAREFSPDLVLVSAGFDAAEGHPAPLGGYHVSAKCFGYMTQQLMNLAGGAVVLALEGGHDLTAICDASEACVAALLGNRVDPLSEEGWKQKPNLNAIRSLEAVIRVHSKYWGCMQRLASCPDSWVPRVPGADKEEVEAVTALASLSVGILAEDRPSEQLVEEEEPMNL
Test: Inhibition of recombinant human HDAC7 using Boc-L-Lys(trifluoroacetyl)-MCA as substrate by fluorogenic enzymatic assay
result-type: log10 of Kd (log10 of the value in µM)

smi: O=C(NO)C(F)(F)C(F)(F)C(F)(F)C(F)(F)C(F)(F)C(F)(F)C(=O)Nc1ccc(-c2cn(-c3ccccc3)nn2)cc1
assay-target: Histone deacetylase 7 (Homo sapiens)
log10 of Kd: 1.48

smi: O=C(NO)C(F)(F)C(F)(F)C(F)(F)C(F)(F)C(F)(F)C(F)(F)C(=O)Nc1ccc2ccc3cccc4ccc1c2c34
assay-target: Histone deacetylase 7 (Homo sapiens)
log10 of Kd: 1.88

smi: O=C(NO)C(F)(F)C(F)(F)C(F)(F)C(F)(F)C(F)(F)C(F)(F)C(=O)Nc1ccc(I)cc1
assay-target: Histone deacetylase 7 (Homo sapiens)
log10 of Kd: 0.61

smi: O=C(NO)C(F)(F)C(F)(F)C(F)(F)C(F)(F)C(F)(F)C(F)(F)C(=O)Nc1cccc2cc3ccccc3cc12
assay-target: Histone deacetylase 7 (Homo sapiens)
log10 of Kd: 1.11

smi: N#Cc1ccc(NC(=O)C(F)(F)C(F)(F)C(F)(F)C(F)(F)C(F)(F)C(F)(F)C(=O)NO)cc1
assay-target: Histone deacetylase 7 (Homo sapiens)
log10 of Kd: 1.51

smi: O=C(NO)C(F)(F)C(F)(F)C(F)(F)C(F)(F)C(F)(F)C(F)(F)C(=O)Nc1cc2ccccc2c2ccccc12
assay-target: Histone deacetylase 7 (Homo sapiens)
log10 of Kd: 1.04

smi: O=C(NO)C(F)(F)C(F)(F)C(F)(F)C(F)(F)C(F)(F)C(F)(F)C(=O)Nc1ccccc1-c1ccccc1
assay-target: Histone deacetylase 7 (Homo sapiens)
log10 of Kd: 1.15

smi: O=C(NO)C(F)(F)C(F)(F)C(F)(F)C(F)(F)C(F)(F)C(F)(F)C(=O)Nc1ccc2cc3ccccc3cc2c1
assay-target: Histone deacetylase 7 (Homo sapiens)
log10 of Kd: 1.58

smi: CCc1cccc(NC(=O)C(F)(F)C(F)(F)C(F)(F)C(F)(F)C(F)(F)C(F)(F)C(=O)NO)c1
assay-target: Histone deacetylase 7 (Homo sapiens)
log10 of Kd: 0.48

smi: O=C(NO)C(F)(F)C(F)(F)C(F)(F)C(F)(F)C(F)(F)C(F)(F)C(=O)Nc1cccc(-c2ccccc2)c1
assay-target: Histone deacetylase 7 (Homo sapiens)
log10 of Kd: 1.15

smi: O=C(NO)C(F)(F)C(F)(F)C(F)(F)C(F)(F)C(F)(F)C(F)(F)C(=O)Nc1ccc2ccccc2c1
assay-target: Histone deacetylase 7 (Homo sapiens)
log10 of Kd: 1.04

smi: O=C(NO)C(F)(F)C(F)(F)C(F)(F)C(F)(F)C(F)(F)C(F)(F)C(=O)Nc1cccc2ccccc12
assay-target: Histone deacetylase 7 (Homo sapiens)
log10 of Kd: 1.30

smi: O=C(NO)C(F)(F)C(F)(F)C(F)(F)C(F)(F)C(F)(F)C(F)(F)C(=O)Nc1ccccc1
assay-target: Histone deacetylase 7 (Homo sapiens)
log10 of Kd: 1.04

smi: Cc1ccc(NC(=O)C(F)(F)C(F)(F)C(F)(F)C(F)(F)C(F)(F)C(F)(F)C(=O)NO)cc1C
assay-target: Histone deacetylase 7 (Homo sapiens)
log10 of Kd: 0.52

smi: O=C(NO)C(F)(F)C(F)(F)C(F)(F)C(F)(F)C(F)(F)C(F)(F)C(=O)Nc1ccc(-c2ccccc2)cc1
assay-target: Histone deacetylase 7 (Homo sapiens)
log10 of Kd: 1.15

smi: O=C(NO)C(F)(F)C(F)(F)C(F)(F)C(F)(F)C(F)(F)C(F)(F)C(=O)Nc1ccc(-c2cnnn2-c2ccccc2)cc1
assay-target: Histone deacetylase 7 (Homo sapiens)
log10 of Kd: 1.08
